Tested on: 299254-011-R-J1-PDC complex spheroid viability
assay_summary: Anticancer human tumor 299254-011-R-J1-PDC patient-derived melanoma cell line growth inhibition [POLQ]
condition: second compound 1 µM; first compound 0.001 µM; stronger effect = lower value
Description: Multicellular complex tumor spheroid response to Polymerase (POL) inhibitors (novobiocin, ART-558, RP6685) in combination with a variety of drugs and investigational agents in selected tumor cell lines The POL inhibitors (novobiocin, ART-558, and RP6685) were evaluated both individually and in combination with standard of care and investigational anticancer small molecules within a complex spheroid model of solid tumors. . […]
readout_type: viability, T/C (%)
Dear colleague, please return just the value in %, with no unit written.

Please review the entries below; each comes with its answer.
INSERT INTO measurements (compound, readout_type, units_of_measure, observed) VALUES
  ('Cn1ncnc1[C@H]1c2n[nH]c(=O)c3cc(F)cc(c23)N[C@@H]1c1ccc(F)cc1 + Nc1ccc(C#CCN(C(=O)Cc2ncc(C(F)(F)F)cc2C(F)(F)F)c2ccc(F)cc2)nn1', 'viability, T/C', '%', 106),
  ('CC[C@@]1(O)C(=O)OCc2c1cc1n(c2=O)Cc2cc3c(CN(C)C)c(O)ccc3nc2-1 + Nc1ccc(C#CCN(C(=O)Cc2ncc(C(F)(F)F)cc2C(F)(F)F)c2ccc(F)cc2)nn1', 'viability, T/C', '%', 106),
  ('CC[C@@]1(O)C(=O)OCc2c1cc1n(c2=O)Cc2cc3c(CN(C)C)c(O)ccc3nc2-1 + Cc1cccc(N(C)C(=O)C2C(O)CCN2c2nc(C)cc(C(F)(F)F)c2C#N)c1', 'viability, T/C', '%', 112),
  ('CC[C@@]1(O)C(=O)OCc2c1cc1n(c2=O)Cc2cc3c(CN(C)C)c(O)ccc3nc2-1 + COC1C(OC(N)=O)C(O)C(Oc2ccc3c(O)c(NC(=O)c4ccc(O)c(CC=C(C)C)c4)c(=O)oc3c2C)OC1(C)C', 'viability, T/C', '%', 106),
  ('Cn1ncnc1[C@H]1c2n[nH]c(=O)c3cc(F)cc(c23)N[C@@H]1c1ccc(F)cc1 + COC1C(OC(N)=O)C(O)C(Oc2ccc3c(O)c(NC(=O)c4ccc(O)c(CC=C(C)C)c4)c(=O)oc3c2C)OC1(C)C', 'viability, T/C', '%', 111);

Next, consider the following compound.
What viability, T/C value was documented for this compound, Cn1ncnc1[C@H]1c2n[nH]c(=O)c3cc(F)cc(c23)N[C@@H]1c1ccc(F)cc1 + Cc1cccc(N(C)C(=O)C2C(O)CCN2c2nc(C)cc(C(F)(F)F)c2C#N)c1 ? 116

###

Tested on: 299254-011-R-J1-PDC complex spheroid viability
assay_summary: Anticancer human tumor 299254-011-R-J1-PDC cell line growth inhibition [POLQ];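 also: spheroids exposed to drugs for one week before measurement; percent viability relative to DMSO vehicle control taken as 100%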
condition: second compound 0.1 µM; first compound 0.00316 µM; stronger effect = lower value
Catalogue of viability, T/C readings, one per entry.
Give your result in % as a bare value.

# example entries with known answers
INSERT INTO assay_data (molecule, observed) VALUES
  ('CC[C@@]1(O)C(=O)OCc2c1cc1n(c2=O)Cc2cc3c(CN(C)C)c(O)ccc3nc2-1 + COC1C(OC(N)=O)C(O)C(Oc2ccc3c(O)c(NC(=O)c4ccc(O)c(CC=C(C)C)c4)c(=O)oc3c2C)OC1(C)C', 107),
  ('COc1cccc(OCCCN)c1-c1cc(Nc2cnc(C#N)cn2)n[nH]1 + COC1C(OC(N)=O)C(O)C(Oc2ccc3c(O)c(NC(=O)c4ccc(O)c(CC=C(C)C)c4)c(=O)oc3c2C)OC1(C)C', 94.2),
  ('CCc1c2c(nc3ccc(O)cc13)-c1cc3c(c(=O)n1C2)COC(=O)[C@]3(O)CC + Cc1cccc(N(C)C(=O)C2C(O)CCN2c2nc(C)cc(C(F)(F)F)c2C#N)c1', 92.8),
  ('CCc1c2c(nc3ccc(O)cc13)-c1cc3c(c(=O)n1C2)COC(=O)[C@]3(O)CC + COC1C(OC(N)=O)C(O)C(Oc2ccc3c(O)c(NC(=O)c4ccc(O)c(CC=C(C)C)c4)c(=O)oc3c2C)OC1(C)C', 114);

// below: viability, T/C requested for another molecule
Request: viability, T/C, test system 299254-011-R-J1-PDC complex spheroid viability, entry C=CCn1c(=O)c2cnc(Nc3ccc(N4CCN(C)CC4)cc3)nc2n1-c1cccc(C(C)(C)O)n1 + COC1C(OC(N)=O)C(O)C(Oc2ccc3c(O)c(NC(=O)c4ccc(O)c(CC=C(C)C)c4)c(=O)oc3c2C)OC1(C)C 116

###

Tested on: 299254-011-R-J1-PDC complex spheroid viability
assay_summary: Anticancer human tumor 299254-011-R-J1-PDC cell line growth inhibition [POLQ];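 also: spheroids exposed to drugs for one week before measurement; percent viability relative to DMSO vehicle control taken as 100%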
condition: second compound 1 µM; first compound 0.00316 µM; stronger effect = lower value
Property: viability, T/C; scope: individual compounds

INSERT INTO measurements (compound, observed) VALUES
  ('C=CCn1c(=O)c2cnc(Nc3ccc(N4CCN(C)CC4)cc3)nc2n1-c1cccc(C(C)(C)O)n1 + COC1C(OC(N)=O)C(O)C(Oc2ccc3c(O)c(NC(=O)c4ccc(O)c(CC=C(C)C)c4)c(=O)oc3c2C)OC1(C)C', '111%');

Form: Entry = CC[C@@]1(O)C(=O)OCc2c1cc1n(c2=O)Cc2cc3c(CN(C)C)c(O)ccc3nc2-1 + COC1C(OC(N)=O)C(O)C(Oc2ccc3c(O)c(NC(=O)c4ccc(O)c(CC=C(C)C)c4)c(=O)oc3c2C)OC1(C)C | System = 299254-011-R-J1-PDC complex spheroid viability | viability, T/C = ____ 111%

Record lookup: for 299254-011-R-J1-PDC complex spheroid viability, what viability, T/C belongs to C=CCn1c(=O)c2cnc(Nc3ccc(N4CCN(C)CC4)cc3)nc2n1-c1cccc(C(C)(C)O)n1 + Nc1ccc(C#CCN(C(=O)Cc2ncc(C(F)(F)F)cc2C(F)(F)F)c2ccc(F)cc2)nn1 ? 102%

Item: CCc1c2c(nc3ccc(O)cc13)-c1cc3c(c(=O)n1C2)COC(=O)[C@]3(O)CC + COC1C(OC(N)=O)C(O)C(Oc2ccc3c(O)c(NC(=O)c4ccc(O)c(CC=C(C)C)c4)c(=O)oc3c2C)OC1(C)C Test system: 299254-011-R-J1-PDC complex spheroid viability Read-out: viability, T/C Value: ? 112%

Can you look up viability, T/C on 299254-011-R-J1-PDC complex spheroid viability for COc1cccc(OCCCN)c1-c1cc(Nc2cnc(C#N)cn2)n[nH]1 + COC1C(OC(N)=O)C(O)C(Oc2ccc3c(O)c(NC(=O)c4ccc(O)c(CC=C(C)C)c4)c(=O)oc3c2C)OC1(C)C ? 114%

What reported viability, T/C corresponds to Cn1ncnc1[C@H]1c2n[nH]c(=O)c3cc(F)cc(c23)N[C@@H]1c1ccc(F)cc1 + Nc1ccc(C#CCN(C(=O)Cc2ncc(C(F)(F)F)cc2C(F)(F)F)c2ccc(F)cc2)nn1 on 299254-011-R-J1-PDC complex spheroid viability? 102%

State its viability, T/C on 299254-011-R-J1-PDC complex spheroid viability: Cn1ncnc1[C@H]1c2n[nH]c(=O)c3cc(F)cc(c23)N[C@@H]1c1ccc(F)cc1 + Cc1cccc(N(C)C(=O)C2C(O)CCN2c2nc(C)cc(C(F)(F)F)c2C#N)c1 103%

Param readout= viability, T/C; system= 299254-011-R-J1-PDC complex spheroid viability; entry= Cn1ncnc1[C@H]1c2n[nH]c(=O)c3cc(F)cc(c23)N[C@@H]1c1ccc(F)cc1 + COC1C(OC(N)=O)C(O)C(Oc2ccc3c(O)c(NC(=O)c4ccc(O)c(CC=C(C)C)c4)c(=O)oc3c2C)OC1(C)C ; returns value. 102%

Could you share what viability, T/C was measured for COc1cccc(OCCCN)c1-c1cc(Nc2cnc(C#N)cn2)n[nH]1 + Cc1cccc(N(C)C(=O)C2C(O)CCN2c2nc(C)cc(C(F)(F)F)c2C#N)c1 , tested on 299254-011-R-J1-PDC complex spheroid viability? 90.6%

What measured viability, T/C is associated with COc1cccc(OCCCN)c1-c1cc(Nc2cnc(C#N)cn2)n[nH]1 + Nc1ccc(C#CCN(C(=O)Cc2ncc(C(F)(F)F)cc2C(F)(F)F)c2ccc(F)cc2)nn1 on 299254-011-R-J1-PDC complex spheroid viability? 98.3%

###

Tested on: 299254-011-R-J1-PDC complex spheroid viability
assay_summary: Anticancer human tumor 299254-011-R-J1-PDC cell line growth inhibition [POLQ];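 also: spheroids exposed to drugs for one week before measurement; percent viability relative to DMSO vehicle control taken as 100%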
condition: second compound 0.316 µM; first compound 3.16 µM; stronger effect = lower value
Description: Multicellular complex tumor spheroid response to Polymerase (POL) inhibitors (novobiocin, ART-558, RP6685) in combination with a variety of drugs and investigational agents in selected tumor cell lines The POL inhibitors (novobiocin, ART-558, and RP6685) were evaluated both individually and in combination with standard of care and investigational anticancer small molecules within a complex spheroid model of solid tumors. . […]
Hi! Could you tag entries with viability, T/C below 90% as criterion met, and those at or above as criterion not met? Much appreciated.

Illustrative cases are given below, each with its answer.
INSERT INTO measurements (compound, label_value) VALUES
  ('CC(C)n1c(=O)n(C)c2cnc3cc(F)c(-c4ccc(OCCCN5CCCCC5)nc4)cc3c21 + Cc1cccc(N(C)C(=O)C2C(O)CCN2c2nc(C)cc(C(F)(F)F)c2C#N)c1', 'criterion not met'),
  ('CNCc1ccc(-c2[nH]c3cc(F)cc4c3c2CCNC4=O)cc1 + COC1C(OC(N)=O)C(O)C(Oc2ccc3c(O)c(NC(=O)c4ccc(O)c(CC=C(C)C)c4)c(=O)oc3c2C)OC1(C)C', 'criterion not met'),
  ('COc1cccc2c1C(=O)c1c(O)c3c(c(O)c1C2=O)CC(O)(C(=O)CO)CC3OC1CC(N)C(O)C(C)O1 (stereo not given) + Nc1ccc(C#CCN(C(=O)Cc2ncc(C(F)(F)F)cc2C(F)(F)F)c2ccc(F)cc2)nn1', 'criterion met'),
  ('COc1ccc([C@@H](O)c2cc(-c3ncnc4cc(N5CCOCC5)ccc34)c(F)cc2Cl)nn1 + Cc1cccc(N(C)C(=O)C2C(O)CCN2c2nc(C)cc(C(F)(F)F)c2C#N)c1', 'criterion met'),
  ('Nc1ccn(C2OC(CO)C(O)C2(F)F)c(=O)n1 (stereo not given) + COC1C(OC(N)=O)C(O)C(Oc2ccc3c(O)c(NC(=O)c4ccc(O)c(CC=C(C)C)c4)c(=O)oc3c2C)OC1(C)C', 'criterion met');

Dear reviewer, please state whether COc1cc2cc(C(=O)CCC(=O)O)sc2cc1OC + COC1C(OC(N)=O)C(O)C(Oc2ccc3c(O)c(NC(=O)c4ccc(O)c(CC=C(C)C)c4)c(=O)oc3c2C)OC1(C)C has viability, T/C strictly beneath 90%. criterion not met

Confirm or reject: viability, T/C of CC1COCCN1c1cc(C2(O)CC3CCC(C2)O3)c2cnn(-c3ccn[nH]3)c2n1 (stereo not given) + COC1C(OC(N)=O)C(O)C(Oc2ccc3c(O)c(NC(=O)c4ccc(O)c(CC=C(C)C)c4)c(=O)oc3c2C)OC1(C)C lies strictly below 90% criterion met

Please indicate whether the reported viability, T/C of O=C(Nc1ccc(O)c(NS(=O)(=O)c2ccc(F)cc2)c1)c1ccc(-c2ccccc2)cc1 + Cc1cccc(N(C)C(=O)C2C(O)CCN2c2nc(C)cc(C(F)(F)F)c2C#N)c1 is strictly below 90%. criterion not met

Quick check: viability, T/C of CC1COCCN1c1cc(-c2ccnn2C)c2ccnc(-c3ccn[nH]3)c2n1 (stereo not given) + Cc1cccc(N(C)C(=O)C2C(O)CCN2c2nc(C)cc(C(F)(F)F)c2C#N)c1 under 90%? criterion met

Strictly below 90%: is that where viability, T/C of COc1cc2cc(C(=O)CCC(=O)O)sc2cc1OC + Cc1cccc(N(C)C(=O)C2C(O)CCN2c2nc(C)cc(C(F)(F)F)c2C#N)c1 sits? criterion not met

Would you kindly verify if viability, T/C of CC1COCCN1c1cc(C2(S(C)(=N)=O)CC2)nc(-c2ccnc3[nH]ccc23)n1 (stereo not given) + Cc1cccc(N(C)C(=O)C2C(O)CCN2c2nc(C)cc(C(F)(F)F)c2C#N)c1 is strictly less than 90%? criterion met

Determine if CC(C)n1c(=O)n(C)c2cnc3cc(F)c(-c4ccc(OCCCN5CCCCC5)nc4)cc3c21 + COC1C(OC(N)=O)C(O)C(Oc2ccc3c(O)c(NC(=O)c4ccc(O)c(CC=C(C)C)c4)c(=O)oc3c2C)OC1(C)C shows viability, T/C strictly lower than 90%. criterion not met

Would you kindly verify if viability, T/C of O=C(c1cc(Cc2n[nH]c(=O)c3ccccc23)ccc1F)N1CCN(C(=O)C2CC2)CC1 + Nc1ccc(C#CCN(C(=O)Cc2ncc(C(F)(F)F)cc2C(F)(F)F)c2ccc(F)cc2)nn1 is strictly less than 90%? criterion not met

Threshold test, viability, T/C < 90%: C=CC(=O)N1CCN(c2nc(=O)n(-c3c(C)ccnc3C(C)C)c3nc(-c4c(O)cccc4F)c(F)cc23)C(C)C1 (stereo not given) + COC1C(OC(N)=O)C(O)C(Oc2ccc3c(O)c(NC(=O)c4ccc(O)c(CC=C(C)C)c4)c(=O)oc3c2C)OC1(C)C criterion met
